B1: MYBL2 (parent)
chain: FSPSQFLNFWNKQDTLELESPSLT

Variants of: B1
ASSAY_INFO: protein stability index of a GFP-peptide fusion (GPS, HEK-293T) (PSI 1-6); higher = more stable;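 also: lentivirally expressed fusions sorted by FACS into six bins by GFP to DsRed ratio, PSI derived from sequencing read proportions per bin multiplied by bin number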
EXPERIMENTAL_CONTEXT: c terminus: a fixed tail appended
MEASURED_ENDPOINT: protein stability index
Give bare numbers.

>  <MUTATIONS>
T24A

>  <protein stability index>
3.17

$$$$
>  <MUTATIONS>
P21T

>  <protein stability index>
2.36

$$$$

Please give protein stability index for each item listed below.
1. P3L
2. S2Q
3. N8S
4. W10A
5. P3S
6. F1L

**A:**
1: 2.69; 2: 2.71; 3: 3.58; 4: 2.48; 5: 2.18; 6: 3.51

Please give protein stability index for each item listed below.
1. L16A
2. L18S
3. L16V
4. W10Q
5. L7R

**A:**
1: 3.1; 2: 1.84; 3: 2.19; 4: 3.5; 5: 2.38

Please give protein stability index for each item listed below.
1. Q5T
2. S22H
3. Q5H
4. E17V

**A:**
[3.6, 2.56, 2.79, 3.59]

Please give protein stability index for each item listed below.
1. N8F
2. F9D
3. T24S
4. F9E
5. Q5N
6. L7H

**A:**
[4.01, 2.98, 2.36, 2.43, 2.27, 3.34]

Please give protein stability index for each item listed below.
1. F9H
2. Q13M

**A:**
[2.43, 3.43]

Please give protein stability index for each item listed below.
1. L7F
2. Q5P
3. W10E
4. N11P

**A:**
1. 2.6
2. 3.49
3. 3.51
4. 2.51

Please give protein stability index for each item listed below.
1. T15P
2. N11F

**A:**
1: 2.48; 2: 2.14

Please give protein stability index for each item listed below.
1. L7G
2. F6H
3. L16Q
4. Q5A
5. K12R
6. P3D

**A:**
1: 2.59; 2: 2.6; 3: 3.33; 4: 2.55; 5: 2.52; 6: 3.71
